Data provenance is patent US20180305414A1.

Target: human IgG (available from the Chemo-Sero-Therapeutic Research Institute) (human)
Test: binding capacity; binder immobilised on agarose gel, human IgG, acid elution, A280
reportedEndpoint: IgG Binding Capacity (mg/mL gel)

binder	IgG Binding Capacity [mg/mL gel]
modified product PL-056 of immunoglobulin-binding domain 4 (designed binder) MAQHDEAGLALEKPEEPREEVTIRVNLIFADGATQTAEFKGTFEEATAEAYRYADLLAKVNGEYTADLEDGGYTINIKFAGALPSKSKKILKEAKKLNKAQAPKKKK	61.6
modified product PL-045 of immunoglobulin-binding domain 4 (designed binder) MAQHDEAGLALERPEEPKEEVTIKVNLIFADGRTQTAEFKGTFEEATAEAYRYADLLAKVNGEYTADLEDGGYTINIKFAGALPSKSKKILKEAKKLNKAQAPKKKK	60.6
modified product PL-026 of immunoglobulin-binding domain 4 (designed binder) MAQHDEAGLALEKPEEPREEVTIRVNLIFADGKTQTAEFKGTFEEATAEAYRYADLLAKVNGEYTADLEDGGYTINIKFAGALPSKSKKILKEAKKLNKAQAPKKKK	57.8
modified product PL-044 of immunoglobulin-binding domain 4 (designed binder) MAQHDEAGLALEKPEEPKEEVTIKVNLIFADGRTQTAEFKGTFEEATAEAYRYADLLAKVNGEYTADLEDGGYTINIKFAGALPSKSKKILKEAKKLNKAQAPKKKK	58.9
modified product PL-046 of immunoglobulin-binding domain 4 (designed binder) MAQHDEAGLALEKPEEPREEVTIKVNLIFADGRTQTAEFKGTFEEATAEAYRYADLLAKVNGEYTADLEDGGYTINIKFAGALPSKSKKILKEAKKLNKAQAPKKKK	59.7
modified product PL-051 of immunoglobulin-binding domain 4 (designed binder) MAQHDEAGLALEKPEEPREEVTIRVNLIFADGLTQTAEFKGTFEEATAEAYRYADLLAKVNGEYTADLEDGGYTINIKFAGALPSKSKKILKEAKKLNKAQAPKKKK	57.3
modified product PL-057 of immunoglobulin-binding domain 4 (designed binder) MAQHDEAGLALEKPEEPREEVTIRVNLIFADGKTQTAEFRGTFEEATAEAYRYADLLAKVNGEYTADLEDGGYTINIKFAGALPSKSKKILKEAKKLNKAQAPKKKK	55.6
modified product PL-024 of immunoglobulin-binding domain 4 (designed binder) MAQHDEAGLALETPEEPREEVTIRVNLIFADGRTQTAEFRGTFEEATAEAYRYADLLARVNGEYTADLEDGGYTINIRFAGALPSKSKKILKEAKKLNKAQAPKKKK	63.4
